Ref: ChEMBL document CHEMBL1128203

Biological target: Acetylcholinesterase (Mus musculus)
Sequence (P21836 whole entry): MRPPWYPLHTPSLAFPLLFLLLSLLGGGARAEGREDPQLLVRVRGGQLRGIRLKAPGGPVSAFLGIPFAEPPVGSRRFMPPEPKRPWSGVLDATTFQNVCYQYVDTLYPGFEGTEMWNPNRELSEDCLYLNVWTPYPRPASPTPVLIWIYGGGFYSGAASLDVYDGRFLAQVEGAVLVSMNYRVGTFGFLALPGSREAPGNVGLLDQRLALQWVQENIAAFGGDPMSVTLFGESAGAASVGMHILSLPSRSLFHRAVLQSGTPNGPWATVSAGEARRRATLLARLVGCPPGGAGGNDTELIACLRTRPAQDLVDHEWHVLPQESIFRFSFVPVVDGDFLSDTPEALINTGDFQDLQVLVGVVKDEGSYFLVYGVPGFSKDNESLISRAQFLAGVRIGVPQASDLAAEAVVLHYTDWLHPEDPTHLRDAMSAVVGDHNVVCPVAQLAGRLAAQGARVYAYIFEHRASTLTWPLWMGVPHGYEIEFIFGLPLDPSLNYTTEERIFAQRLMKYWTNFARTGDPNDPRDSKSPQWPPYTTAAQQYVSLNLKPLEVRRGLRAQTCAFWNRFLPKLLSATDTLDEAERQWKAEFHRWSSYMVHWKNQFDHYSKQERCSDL
endpoint name: IC50 (nM)
Reply numerically in nM, unit not repeated.

Answered cases to consult:
{"compound": "COc1ccc(OC)c2c1CC(CC1CCN(Cc3ccccc3)CC1)C2=O (stereo not drawn)", "IC50 (nM)": 36}
{"compound": "COc1ccc2c(c1OC)CC(CC1CCN(Cc3ccccc3)CC1)C2=O (stereo not drawn)", "IC50 (nM)": 20}
{"compound": "COc1cc2c(cc1OC)C(=O)C(CCCC1CCN(Cc3ccccc3)CC1)C2 (stereo not drawn)", "IC50 (nM)": 1.5}
{"compound": "COc1cc2c(cc1OC)C(=O)C(CC1CCN(Cc3cccc(C)c3)CC1)C2 (stereo not drawn)", "IC50 (nM)": 2}
{"compound": "COc1cc2c(cc1OC)C(=O)/C(=C\\C1CCN(Cc3ccccc3)CC1)C2", "IC50 (nM)": 13}
{"compound": "O=C1c2ccccc2CC1CCC1CCN(Cc2ccccc2)CC1 (stereo not drawn)", "IC50 (nM)": 230}

I would be grateful if you could share the reported IC50 for `CNC(=O)Oc1ccc2c(c1)[C@]1(C)CCN(C)[C@@H]1N2C` .
0.68

// returns reported IC50 for input COc1ccc2c(c1OC)C(=O)C(CC1CCN(Cc3ccccc3)CC1)C2 (stereo not drawn)
85
